# system.tested: influenza A virus minigenome (PB2, PB1, PA, NP proteins)
# Assay type: cell-based
# condition.context: read-out: RNP_ Hubei B IC50
pIC50: −log10 of the molar value.
measured.parameter: pIC50

Use these answered entries as a reference point.
compound	system.tested	measured.parameter	result
NC(=O)c1cc(-c2ccc(OCc3ccnn3CC3CC3)cc2)c(C(F)(F)F)[nH]c1=O	influenza A virus minigenome (PB2, PB1, PA, NP proteins)	pIC50	4.30 to 4.60
NC(=O)c1cc(-c2ccc(OCC3COCC(COC4CC(F)(F)C4)O3)cc2)c(C(F)(F)F)[nH]c1=O (single isomer, unassigned) [Example 366]	influenza A virus minigenome (PB2, PB1, PA, NP proteins)	pIC50	5.00 to 5.30

Req: Please look up its pIC50: NC(=O)c1cc(-c2ccc(OCC3OCC4CCC3O4)cc2)c(C(F)(F)F)[nH]c1=O (single isomer, unassigned) [Example 319]
Resp: 5.00 to 5.30

====

# system.tested: influenza A virus minigenome (PB2, PB1, PA, NP proteins)
# Assay type: cell-based
# condition.context: read-out: RNP_ Hubei B IC50
pIC50: −log10 of the molar value.
Entries and their measured pIC50 follow.

Use these answered entries as a reference point.
compound	result
NC(=O)c1cc(-c2ccc(OCC3COCC(=O)N3)cc2)c(C(F)(F)F)[nH]c1=O (stereo not shown)	4.30 to 4.60
Cn1nc(C2CC2)cc1COc1ccc(-c2cc(C(N)=O)c(=O)[nH]c2C(F)(F)F)cc1	4.30 to 4.60
NC(=O)c1cc(-c2ccc(OCC3(F)COCCO3)cc2)c(C(F)(F)F)[nH]c1=O (stereo not shown)	5.00 to 5.30
NC(=O)c1cc(-c2ccc(OCC3COCc4c(C5CC5)nnn43)cc2)c(C(F)(F)F)[nH]c1=O (stereo not shown)	5.00 to 5.30
C[C@]1(CF)COC[C@@H](COc2ccc(-c3cc(C(N)=O)c(=O)[nH]c3C(F)(F)F)cc2)O1	5.00 to 5.30

Req: Please look up its pIC50: C[C@H]1COC[C@H](COc2ccc(-c3cc(C(N)=O)c(=O)[nH]c3C(F)(F)F)cc2)O1
Resp: 4.60 to 5.00

Req: Please look up its pIC50: COC[C@@H]1COC[C@@H](COc2ccc(-c3cc(C(N)=O)c(=O)[nH]c3C(F)(F)F)cc2)O1
Resp: 5.00 to 5.30

====

# system.tested: influenza A virus minigenome (PB2, PB1, PA, NP proteins)
# Type: cell-based
# condition.context: read-out: RNP_Hubei B
pIC50: −log10 of the molar value.
Entries and their measured pIC50 follow.

Use these answered entries as a reference point.
molecule	result
NC(=O)c1cc(-c2cccc(O)c2)c(C(F)(F)F)[nH]c1=O	4.30 to 4.60
N#Cc1ccccc1COc1ccc(-c2cc(C(N)=O)c(=O)[nH]c2C(F)(F)F)cc1	4.30 to 4.60
Cc1noc(C)c1COc1ccc(-c2cc(C(N)=O)c(=O)[nH]c2C(F)(F)F)cc1	4.30 to 4.60
CC(C)Oc1ccc(-c2cc(C(N)=O)c(=O)[nH]c2C(F)(F)F)cc1	4.60 to 5.00
NC(=O)c1cc(-c2ccc(CN3CCSCC3)cc2)c(C(F)(F)F)[nH]c1=O	5.30 to 6.00

Req: Please look up its pIC50: NC(=O)c1cc(-c2ccc(OC(F)(F)C3COCCO3)cc2)c(C(F)(F)F)[nH]c1=O (centres unmarked)
Resp: 5.00 to 5.30

Req: Please look up its pIC50: NC(=O)c1cc(-c2ccc(CC3(F)CCOCC3)cc2)c(C(F)(F)F)[nH]c1=O
Resp: 5.00 to 5.30

Req: Please look up its pIC50: CS(=O)(=O)c1cccc(COc2ccc(-c3cc(C(N)=O)c(=O)[nH]c3C(F)(F)F)cc2)c1
Resp: 4.30 to 4.60

====

Entries and their measured IC50 follow.
# system.tested: influenza A virus minigenome (PB2, PB1, PA, NP proteins)
# Type: cell-based
# condition.context: read-out: RNP_Hubei B

Use these answered entries as a reference point.
compound	IC50
NC(=O)c1cc(-c2ccc(OCc3cncnc3)cc2)c(C(F)(F)F)[nH]c1=O	25 to 50 µM
NC(=O)c1cc(-c2ccc(OCc3cnc4c(c3)ncn4CC3CC3)cc2)c(C(F)(F)F)[nH]c1=O	25 to 50 µM
NC(=O)c1cc(-c2ccc(OCC3CN(C4COC4)CCCO3)cc2)c(C(F)(F)F)[nH]c1=O (stereo not shown)	25 to 50 µM
NC(=O)c1cc(-c2ccc(OCc3ccc(Cl)nc3)cc2)c(C(F)(F)F)[nH]c1=O	25 to 50 µM
CCCNc1cccc(COc2ccc(-c3cc(C(N)=O)c(=O)[nH]c3C(F)(F)F)cc2)c1	0.1 to 1 µM

Req: Please look up its IC50: CN(C)Cc1ccc(-c2cc(C(N)=O)c(=O)[nH]c2C(F)(F)F)cc1
Resp: 25 to 50 µM

Req: Please look up its IC50: COCC(Oc1ccc(-c2cc(C(N)=O)c(=O)[nH]c2C(F)(F)F)cc1)c1cccnc1 (stereo not shown)
Resp: 25 to 50 µM

Req: Please look up its IC50: N#Cc1cncc(COc2ccc(-c3cc(C(N)=O)c(=O)[nH]c3C(F)(F)F)cc2)c1
Resp: 25 to 50 µM

Req: Please look up its IC50: CC1(C)CN(Cc2ccc(-c3cc(C(N)=O)c(=O)[nH]c3C(F)(F)F)cc2)CCO1
Resp: 10 to 25 µM

====

# system.tested: UniProt P04665
# Sequence (P04665 whole entry): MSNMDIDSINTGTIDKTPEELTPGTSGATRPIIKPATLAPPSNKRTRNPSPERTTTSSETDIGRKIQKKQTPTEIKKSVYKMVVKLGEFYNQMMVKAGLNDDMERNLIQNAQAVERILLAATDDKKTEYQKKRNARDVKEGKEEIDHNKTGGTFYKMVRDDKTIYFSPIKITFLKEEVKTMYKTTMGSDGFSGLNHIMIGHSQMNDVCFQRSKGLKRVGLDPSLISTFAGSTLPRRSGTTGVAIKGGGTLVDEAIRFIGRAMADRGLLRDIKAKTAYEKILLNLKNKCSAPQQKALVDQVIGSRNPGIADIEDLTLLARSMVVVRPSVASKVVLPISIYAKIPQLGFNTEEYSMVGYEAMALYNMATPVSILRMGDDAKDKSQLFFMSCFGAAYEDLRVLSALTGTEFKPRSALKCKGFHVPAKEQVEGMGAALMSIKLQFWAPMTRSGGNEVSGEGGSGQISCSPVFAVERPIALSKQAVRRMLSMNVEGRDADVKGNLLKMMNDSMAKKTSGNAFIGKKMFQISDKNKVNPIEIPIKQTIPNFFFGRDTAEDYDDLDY
# Type: cell-based
# condition.context: read-out: RNP_ Hubei B IC50
pIC50: −log10 of the molar value.
Entries and their measured pIC50 follow.

compound	pIC50
NC(=O)c1cc(-c2ccc(OCC3COCC(Cn4cccn4)O3)cc2)c(C(F)(F)F)[nH]c1=O (single isomer, unassigned) [Example 377]	5.00 to 5.30
COC(C)(C)C1COCC(COc2ccc(-c3cc(C(N)=O)c(=O)[nH]c3C(F)(F)F)cc2)O1 (centres unmarked)	5.00 to 5.30
NC(=O)c1cc(-c2ccc(OC[C@@H]3COC[C@H](C4CC4)O3)cc2)c(C(F)(F)F)[nH]c1=O	4.60 to 5.00

Req: Please look up its pIC50: C[C@]12O[C@@H](COc3ccc(-c4cc(C(N)=O)c(=O)[nH]c4C(F)(F)F)cc3)CO[C@H]1C2(F)F
Resp: 5.00 to 5.30

Req: Please look up its pIC50: CCN1CC(COc2ccc(-c3cc(C(N)=O)c(=O)[nH]c3C(F)(F)F)cc2)OC1=O (centres unmarked)
Resp: 4.30 to 4.60

Req: Please look up its pIC50: C[C@@]12O[C@H](COc3ccc(-c4cc(C(N)=O)c(=O)[nH]c4C(F)(F)F)cc3)CO[C@@H]1C2(F)F
Resp: 5.00 to 5.30

Req: Please look up its pIC50: C[C@]1(COC2COC2)COC[C@@H](COc2ccc(-c3cc(C(N)=O)c(=O)[nH]c3C(F)(F)F)cc2)O1
Resp: 5.00 to 5.30

Req: Please look up its pIC50: C[C@]1(CCF)COC[C@@H](COc2ccc(-c3cc(C(N)=O)c(=O)[nH]c3C(F)(F)F)cc2)O1
Resp: 5.00 to 5.30

Req: Please look up its pIC50: Cn1ncc2c1COCC2COc1ccc(-c2cc(C(N)=O)c(=O)[nH]c2C(F)(F)F)cc1 (single isomer, unassigned) [Example 289]
Resp: 5.00 to 5.30

Req: Please look up its pIC50: NC(=O)c1cc(-c2ccc(OCC3COCC(COCC4(F)CC4)O3)cc2)c(C(F)(F)F)[nH]c1=O (single isomer, unassigned) [Example 364]
Resp: 5.00 to 5.30

Req: Please look up its pIC50: NC(=O)c1cc(-c2ccc(OC[C@H]3CO[C@H]4[C@@H](O3)C4(F)F)cc2)c(C(F)(F)F)[nH]c1=O
Resp: 5.30 to 6.00

Req: Please look up its pIC50: Cn1cc(COc2ccc(-c3cc(C(N)=O)c(=O)[nH]c3C(F)(F)F)cc2)cn1
Resp: 4.30 to 4.60

Req: Please look up its pIC50: NC(=O)c1cc(-c2ccc(OCC3COC(CF)CO3)cc2)c(C(F)(F)F)[nH]c1=O (single isomer, unassigned) [Example 340]
Resp: 5.00 to 5.30

Req: Please look up its pIC50: C[C@]1(CC(F)F)COC[C@@H](COc2ccc(-c3cc(C(N)=O)c(=O)[nH]c3C(F)(F)F)cc2)O1
Resp: 5.00 to 5.30

====

# system.tested: UniProt P04665
# Assay type: cell-based
# condition.context: read-out: RNP_ Hubei B IC50
measured.parameter: IC50

Use these answered entries as a reference point.
compound	IC50
NC(=O)c1cc(-c2ccc(OCC3COC4(CC4)CO3)cc2)c(C(F)(F)F)[nH]c1=O (racemic)	10 to 25 µM
C[C@@]1(CN2CC(F)C2)COC[C@@H](COc2ccc(-c3cc(C(N)=O)c(=O)[nH]c3C(F)(F)F)cc2)O1	5 to 10 µM
CC1(COc2ccc(-c3cc(C(N)=O)c(=O)[nH]c3C(F)(F)F)cc2)COCCOC1	5 to 10 µM

Req: Please look up its IC50: CC(F)(F)C1COCC(COc2ccc(-c3cc(C(N)=O)c(=O)[nH]c3C(F)(F)F)cc2)O1 (single isomer, unassigned) [Example 358]
Resp: 5 to 10 µM
